Source listed as the supplement of paper PMC9170038.

apparent KD of MS2 coat protein overview
test system: MS2 coat protein; assay: apparent KD of MS2 coat protein; designed switch direction (-1 OFF switch, 1 ON switch): 1; higher = weaker reporter binding; settings: input ligand: FMN 200 uM
Just the number plus its unit, please.

>>> reported_value("CCGCUCCGUGGAGGAUAUGGGCCUGCCCGGGAUACCGAGCCUAACACAUGAGGAUCACCCAUGUCCCAGAAGGCCGCUGGAGCC [Inusaron] (Eterna round: R96, puzzle: Same State NG 2)")
"30.7 nM"
>>> reported_value("UUCUCAUUUACAUGAGGAUCACCCAUGUUUUUUUGUCAGAGAUAGGAUAUAGUUCUCUCGUUUUUCUAGAAGGAUCUUUUUAUU [JR_SSNG3_Sub087] (Eterna round: R96, puzzle: Same State NG 3)")
"79.7 nM"

Report value only: apparent KD of MS2 coat protein, MS2 coat protein, GGUCGGACCUACAUGAGGAUCACCCAUGUUCCGGAAACGGCAUAGGAUAUCUGUCCGAAAAGGUCAGAGAAGGGUGAACCGACC [Fiskers NG3ss - 74] (Eterna round: R96, puzzle: Same State NG 3)
145 nM

Report value only: apparent KD of MS2 coat protein, MS2 coat protein, GUUACAUGAGGAUCACCCAUGUAUGUGUGGGAGUAAGUGUCUUAGGAUAUCUAGUGUUUAAUUUAAGAGAAGGAAGAUUGUUGU [JMF's solution 53] (Eterna round: R96, puzzle: Same State NG 3)
134 nM

Report value only: apparent KD of MS2 coat protein, MS2 coat protein, ACAUGAGGCGCAGGAUAUACAGUUGUAUAACAUGAGGACAUGACAUGAGGAUCACCCAUGUCCCAGUAGAAGGGCGAACAUGAG [Same State NG2 S2] (Eterna round: R96, puzzle: Same State NG 2)
172 nM

Report value only: apparent KD of MS2 coat protein, MS2 coat protein, CAUCGUUUGAUAGGAUAUCGCUAUACAUGAGGAUCACCCAUGUUUACCACGCUGGUUUUUCAUACCGAGAAGGAUUCUGAUGAG [salish99_SSNG02_r04_012] (Eterna round: R96, puzzle: Same State NG 2)
55.3 nM

Report value only: apparent KD of MS2 coat protein, MS2 coat protein, GUACAGAUUAUAGGAUAUCACGUCGAAUAGACGUGAGAAGGAUAAUCCCACAUGAAUAUUAAUACAUGAGGAUCACCCAUGUAC [SSNG1/18-B1] (Eterna round: R96, puzzle: Same State NG 1)
16.8 nM
